Reference source: paper PMC11836371

- assay_system: human OGG1 enzyme (Homo sapiens)
- assay_text: Differential scanning fluorimetry (DSF) thermal shift assay
- Format: binding
- Set-up: unit of the concentration uncertain
- experimental_setup: 99 (unit uncertain) as printed in sheet footnote
- Protocol: The temperature was increased from 20 °C to 85 °C with 10 readings/degree. Tm values were calculated using an excel template and fitting to the Boltzmann equation in Prism v.6.07 (GraphPad Software).
value_type: ∆Tm (K)

INSERT INTO assay_data (smiles_structure, val) VALUES
  ('Cc1nc(-c2cc(F)c(CC(=O)Nc3noc4c3CCCC4)c(F)c2)c(C)[nH]1', 9.0),
  ('O=C(Nc1noc2c1CCCC2)[C@H]1Cc2ccccc21', 4.1),
  ('Cc1nc(-c2ccc(CC(=O)Nc3noc4c3CCCC4)cc2)c(C)[nH]1', 8.1),
  ('Cc1cc(C)n(-c2cc(F)c(CC(=O)Nc3noc4c3CCCC4)c(F)c2)n1', 5.4),
  ('Cc1cc(C)n(-c2ccc(CC(=O)Nc3noc4c3CCCC4)cc2)n1', 5.5),
  ('O=C(Cc1c(F)cccc1F)Nc1noc2c1CCCC2', 1.1);

###

- assay_system: human OGG1 enzyme (Homo sapiens, UniProt O15527)
- Sequence (O15527 whole entry): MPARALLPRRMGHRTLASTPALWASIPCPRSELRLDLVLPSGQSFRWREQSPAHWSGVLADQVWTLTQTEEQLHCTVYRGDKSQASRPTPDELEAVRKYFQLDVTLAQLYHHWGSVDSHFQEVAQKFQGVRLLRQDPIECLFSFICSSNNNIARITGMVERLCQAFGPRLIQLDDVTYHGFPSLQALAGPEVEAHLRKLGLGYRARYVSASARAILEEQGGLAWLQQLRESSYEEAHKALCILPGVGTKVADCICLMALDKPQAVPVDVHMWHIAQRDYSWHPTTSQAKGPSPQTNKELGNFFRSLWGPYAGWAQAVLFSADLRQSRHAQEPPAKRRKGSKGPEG
- assay_text: Differential scanning fluorimetry (DSF) thermal shift assay
- Assay type: binding
- experimental_setup: 99 μM
∆Tm (K) overview
value_type: ∆Tm (K)

INSERT INTO results (compound, value_type, endpoint_unit, val) VALUES
  ('Cc1nc(-c2ccc(CC(=O)Nc3noc4c3CCCC4)cc2)c(C)[nH]1', '∆Tm (K)', 'K', 8.1),
  ('CC(C)(NC(=O)NCc1ccco1)c1ccc(Br)cc1', '∆Tm (K)', 'K', 0.27),
  ('C[C](CCc1ccccc1)C(=O)N1CC(c2ccccc2)C1', '∆Tm (K)', 'K', 0.08),
  ('Cc1ccn2c(NC(=O)C3(Oc4ccc(Cl)cc4)CC3)nnc2c1', '∆Tm (K)', 'K', 0.37),
  ('Cc1nc(-c2cc(F)c(CC(=O)Nc3noc4c3CCCC4)c(F)c2)c(C)[nH]1', '∆Tm (K)', 'K', 9.0),
  ('Cn1ncc2c(Nc3cccc(-c4cccs4)c3)ncnc21', '∆Tm (K)', 'K', -0.23),
  ('O=C(NCC1([C](O)c2ccccc2)CC1)c1ccc(Cl)cc1', '∆Tm (K)', 'K', -0.27),
  ('Cc1ccc(NC(=O)N2CC(O)(c3ccc(Cl)cc3)C2)s1 [ZINC000776423770]', '∆Tm (K)', 'K', -0.42),
  ('Cc1nc(-c2ccc(CC(=O)Nc3noc4c3CCCC4)cc2F)c(C)[nH]1', '∆Tm (K)', 'K', 7.8);

###

- assay_text: Cell viability assay (resazurin), BJhTERT non-transformed control
- Assay type: cell-based
- experimental_setup: human, BJhTERT immortalized fibroblast cells, BJhTERT, Log conc. (M) 3.31131e-5; read-out: cell viability, cytotoxicity curve (Figure3H)
value_type: viability at 72 h, 3.31131e-05 M (%)

INSERT INTO measurements (compound, val) VALUES
  ('O=C(Nc1ccc(I)cc1)N1CCC(n2c(=O)[nH]c3c(Br)cccc32)CC1 [TH5487, reference compound]', 47);

###

- assay_text: Cell viability assay (resazurin), BJhTERT non-transformed control
- Format: cell-based
- experimental_setup: human, BJhTERT immortalized fibroblast cells, BJhTERT, Log conc. (M) 1.38038e-7; read-out: cell viability, cytotoxicity curve (Figure3H)
value_type: viability at 72 h, 1.38038e-07 M

INSERT INTO assay_data (compound, value_type, val) VALUES
  ('O=C(Nc1ccc(I)cc1)N1CCC(n2c(=O)[nH]c3c(Br)cccc32)CC1 [TH5487, reference compound]', 'viability at 72 h, 1.38038e-07 M', '81.8%');
